Parameter GI50: see the listing below.
system: MCF7; test: NCI tumour cell line growth inhibition, 48 h
Activity calls are given as the source filed them. Rule as the data show it: active = GI50 up to about 1.1 µM and inactive = higher.
PROPERTY_LABEL: GI50

[
  {
    "MOLECULE": "Cc1ccc(-c2c(C#N)c(-c3ccccc3)n(NS(=O)(=O)c3ccccc3)c(=O)c2C#N)cc1",
    "REPORTED_MEASUREMENT": "76.2 µM (inactive)"
  },
  {
    "MOLECULE": "COc1ccc2c(c1)c1ccc3c(c1n2C)C(=O)C=CC3=O",
    "REPORTED_MEASUREMENT": "2.45 µM (inactive)"
  },
  {
    "MOLECULE": "O=C(/C(Cl)=C/c1ccccc1)c1ccccc1",
    "REPORTED_MEASUREMENT": "2.05 µM (inactive)"
  },
  {
    "MOLECULE": "CC(=O)Oc1ccccc1C(=O)Nc1ncc([N+](=O)[O-])s1 [NITAZOXANIDE]",
    "REPORTED_MEASUREMENT": "10.2 µM (inactive)"
  },
  {
    "MOLECULE": "CCOC(=O)c1sc2nc(SC)nc3c2c1NCN3c1ccc2c(c1)OCCCO2",
    "REPORTED_MEASUREMENT": "> 100 µM (inactive)"
  },
  {
    "MOLECULE": "O=C(N1CCOCC1)C1(c2ccccc2)CCNCC1",
    "REPORTED_MEASUREMENT": "> 100 µM (inactive)"
  },
  {
    "MOLECULE": "COc1cc2ccnc3c2c(c1O)N(C)C=C3",
    "REPORTED_MEASUREMENT": "7.35 µM (inactive)"
  },
  {
    "MOLECULE": "Cn1c(=O)sc2cc(C(=S)N3CCCCC3)ccc21",
    "REPORTED_MEASUREMENT": "> 100 µM (inactive)"
  },
  {
    "MOLECULE": "C(/C=N/N=C1NCCN1)=N\\N=C1NCCN1",
    "REPORTED_MEASUREMENT": "> 100 µM (inactive)"
  },
  {
    "MOLECULE": "CC(C)(C)[Si](C)(C)OCC1OC(n2ccc(N)nc2=O)C(O[Si](C)(C)C(C)(C)C)C1O[Si](C)(C)C(C)(C)C (stereo unspecified)",
    "REPORTED_MEASUREMENT": "2.14 µM (inactive)"
  },
  {
    "MOLECULE": "COc1ccc(C(=O)NC2=C(Cl)C(=O)c3ccccc3C2=O)cc1",
    "REPORTED_MEASUREMENT": "2.75 µM (inactive)"
  }
]

====

test system: M14; assay: NCI tumour cell line growth inhibition, 48 h
The source made the active and inactive calls. No stated cut-off is given here; in the data, active = GI50 up to about 1.1 µM and inactive = higher.
Labels: true (active), false (inactive)

[
  {
    "COMPOUND": "COc1cc2ccnc3c2c(c1O)N(C)C=C3",
    "CAT": "false"
  },
  {
    "COMPOUND": "O=C1NC(=O)C(COCc2ccccc2)C2=C1SCCC2 (configuration not stated)",
    "CAT": "false"
  },
  {
    "COMPOUND": "O=[N+]([O-])c1cccc(Nc2nc(Cl)nc(Cl)n2)c1",
    "CAT": "false"
  },
  {
    "COMPOUND": "COc1ccc2c(c1)c1ccc3c(c1n2C)C(=O)C=CC3=O",
    "CAT": "false"
  },
  {
    "COMPOUND": "CNC1c2ccccc2C(=O)c2cc3c(cc21)OCCOCCOCCOCCO3 (configuration not stated)",
    "CAT": "false"
  },
  {
    "COMPOUND": "O=C(N1CCOCC1)C1(c2ccccc2)CCNCC1",
    "CAT": "false"
  },
  {
    "COMPOUND": "O=C1/C(=C/c2ccccc2)CN(C(=O)Oc2ccc([N+](=O)[O-])cc2)C/C1=C\\c1ccccc1",
    "CAT": "true"
  },
  {
    "COMPOUND": "Oc1[nH]c(Nc2cc(Cl)cc(Cl)c2)nc2ncnc1-2",
    "CAT": "false"
  },
  {
    "COMPOUND": "C=CCc1cccc(C(=O)/C=C(O)/C=C/c2ccccc2Cl)c1O",
    "CAT": "false"
  },
  {
    "COMPOUND": "C=C[C@@H](C)[C@]1(C(=O)OC)CCCC12OCCO2",
    "CAT": "false"
  },
  {
    "COMPOUND": "N#CCCN(CCC#N)c1ccc(/C=N\\c2nc(-c3ccccc3)cs2)cc1",
    "CAT": "false"
  },
  {
    "COMPOUND": "O=C(c1ccccc1Br)C(F)(F)F",
    "CAT": "false"
  },
  {
    "COMPOUND": "NCCSCC(N)C(=O)O (configuration not stated)",
    "CAT": "false"
  },
  {
    "COMPOUND": "CSc1ccc2c(cc1=O)[C@@H](NC(=O)c1ccc(F)cc1)CCc1cc(O)c(O)c(O)c1-2",
    "CAT": "false"
  },
  {
    "COMPOUND": "COc1ccc(N2C(=O)C3c4[nH]c5ccc(C)cc5c4C4CCC(c5ccccc5)CC4C3C2=O)cc1 (configuration not stated)",
    "CAT": "false"
  },
  {
    "COMPOUND": "CC1CCCC(C(=O)CC2CC(=O)NC(=O)C2)C1=O (configuration not stated)",
    "CAT": "false"
  },
  {
    "COMPOUND": "CC1(C)CC[C@]2(C(=O)O)CCC3(C)C(=CCC4[C@@]5(C)CC[C@H](OC6OCC(O)C(O)C6OC6OC(CO)C(O)C(O)C6O)C(C)(C)C5CC[C@]43C)C2C1 (some centres not stated)",
    "CAT": "false"
  },
  {
    "COMPOUND": "CCOC(=O)c1sc2nc(SC)nc3c2c1NCN3c1ccc2c(c1)OCCCO2",
    "CAT": "false"
  },
  {
    "COMPOUND": "CN(CCCN(C)CCc1ccc(Cl)c(Cl)c1)CCCN1CCCC1",
    "CAT": "false"
  },
  {
    "COMPOUND": "N#CC(C(=N/NC(N)=S)/C(=N\\NC(N)=S)C(C#N)c1ccccc1)c1ccccc1 (configuration not stated)",
    "CAT": "false"
  },
  {
    "COMPOUND": "N#CC(Cc1ccccc1Br)N(CCC1=CCCCC1)C(c1ccccc1)c1ccccc1 (configuration not stated)",
    "CAT": "false"
  },
  {
    "COMPOUND": "C/C(=N\\O)c1cccc(Nc2nc3ccccc3c3occc23)c1",
    "CAT": "false"
  }
]

Taken from ChEMBL document CHEMBL1201862.
